system: PC3/TxR; assay: Cytotoxicity assay (MTS, 72 h); assay type: cell-based; conditions: Homo sapiens, Table 6, paclitaxel-resistant, read-out: IC50 (nM) Prostate cancer PC3/TxR
hey, just use true if measured IC50 is less than 5 nM, otherwise false

// known answers, use as guide
COc1ccc2c(c1)NC(=O)CN2c1nc(SC)nc2c1CCC2 [Compound 10]
true
COc1ccc2c(c1)NC(=O)CN2c1nc(NCCO)nc2c1CCC2 [Compound 12m]
false
CCNc1nc2c(c(N3CC(=O)Nc4cc(OC)ccc43)n1)CCC2 [Compound 5v]
true
CNc1nc2c(c(N3CC(=O)Nc4cc(OC)ccc43)n1)CCC2 [Compound 12k]
true
COc1ccc2c(c1)NC(=O)CN2c1nc(N2CCOCC2)nc2c1CCC2 [Compound 12e]
false

Q) API: query returns whether the compound falls strictly under 5 nM in IC50. Query: COc1ccc2c(c1)NC(=O)CN2c1nc(-n2ccnc2)nc2c1CCC2 [Compound 12h]
A) true

Q) COc1ccc2c(c1)NC(=O)CN2c1nc(N=C=S)nc2c1CCC2 [Compound 12l] , same question.
A) true

Q) Ok, now COc1ccc2c(c1)NC(=O)CN2c1nc(N)nc2c1CCC2 [Compound 12c]
A) true

Q) Param item: COc1ccc2c(c1)NC(=O)CN2c1nc(OC)nc2c1CCC2 [Compound 12b]
A) true

Q) Then what about the compound COc1ccc2c(c1)NC(=O)CN2c1nc(NC2CC2)nc2c1CCC2 [Compound 12j] ?
A) true
